TARGET UNDER TEST: T1, CRBN, Q96SW2;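 further: pooled lentiviral library of zinc finger degron-EGFP fusions in mCherry-positive Jurkat cells, FACS-sorted after compound exposure, with degron abundance counted by next-generation sequencing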
T1 chain: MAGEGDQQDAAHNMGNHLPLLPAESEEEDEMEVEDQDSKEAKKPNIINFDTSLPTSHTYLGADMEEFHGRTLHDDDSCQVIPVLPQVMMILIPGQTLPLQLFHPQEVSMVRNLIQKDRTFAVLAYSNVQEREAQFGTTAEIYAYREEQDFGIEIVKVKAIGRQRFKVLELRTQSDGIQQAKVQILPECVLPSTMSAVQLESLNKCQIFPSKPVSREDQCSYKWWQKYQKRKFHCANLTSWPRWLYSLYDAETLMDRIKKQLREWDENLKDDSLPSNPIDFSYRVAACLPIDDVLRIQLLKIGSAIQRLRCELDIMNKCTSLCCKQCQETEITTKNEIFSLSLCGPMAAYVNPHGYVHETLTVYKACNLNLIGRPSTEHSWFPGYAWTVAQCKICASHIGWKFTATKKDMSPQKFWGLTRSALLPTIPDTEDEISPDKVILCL
TEST PROTOCOL: log2 fold change of degron read counts, EGFP-low vs EGFP+ sorted cells (limma voom), compound-induced degradation; higher = more compound-induced degradation of the degron-EGFP fusion; degrons are variants of IKZF1/3 zinc finger 2; compound dose not given here
EXPERIMENTAL CONTEXT: Jurkat; 18 h; compound: compound 19 (5-tert-butyl-thalidomide)
The full ranking holds about 8,300 sequences; the median of “log2 fold change of degron read counts, EGFP-low vs EGFP+ sorted cells (limma voom), compound-induced degradation” is about -1.1, and the highest 2% start at about 3.2. What follows is part of a selection rich in the highest values, with near analogues and random picks from the rest.
Record form. Attribute: log2 fold change of degron read counts. Fill in for each entry.
Enter a number only.

Lookup: Fill in: log2 fold change of degron read counts of FRCPICGADFTQKGNLLRHIKL [46F_47R_49P_50I_52G_53A_54D_55F_67L_, Q9UKT9] is ___
Found: -0.99

Lookup: Same lookup for FFCPICGAFFTQKGNLLRHIKL [46F_47F_49P_50I_52G_53A_54F_55F_67L_, Q9UKT9] , please.
Found: 2.73

Lookup: Same lookup for FRCPICGAPFTQKGNLLRHIKL [46F_47R_49P_50I_52G_53A_54P_55F_67L_, Q9UKT9] , please.
Found: 3.44

Lookup: Same lookup for FICNQCGHFFTQKGNLLRHIKL [46F_47I_49N_50Q_52G_53H_54F_55F_67L_, Q9UKT9] , please.
Found: -2.52
